Assay: yeast display, Sf9 membrane polyspecificity reagent, FACS + sequencing; frameworks hold sequencing errors
parameter measured: polyreactivity (PSR sort gate)

Worked examples follow.
[[record]]
sequence_text = "QVQLVESGGGLVQAGGSLRLSCAASGITFRNYAMGWYRQAPGKEREFVAAIRWGGGSTYYEDSGKGRFTISLDNAKNTVYLQMNSLKPEDTAVYYCATRGYSRNNPYSRPYDYWGQGTQVTVSS"
result = "high polyreactivity"

[[record]]
sequence_text = "QVLLQESGGGLVQAGGSLRVSCAASGTISTDIRMGSYRLAPGKEREFVASIDGCSTTYYADSVKGRFTISRDNAKNTVYLQMNSLKPEDTAMYYCAAREATEYYLYYWGQGTQVTVSS"
result = "low polyreactivity"

[[record]]
sequence_text = "QVQLVESGGGLVQAGGSLRLSCAASGFTFYSYAMGWYRQAPGKERELVAAISWSGTRTYYADSVKGRFTISRDNGKNTVYLQMTSLKPEVTAVYYCAGRGYRYGYGYWGQGTQVTVSS"
result = "high polyreactivity"

[[record]]
sequence_text = "QVQLVESGGGLVQAGGSLRLSCAASGSITSNVMGWYRQAPGKEMELVAAISRGGGSTYYADSVKGRFTISRDNAKNTVYLQMNSLKPEDTAVFYCAADVWGGLLPGYDYWGQGTQVTVSS"
result = "high polyreactivity"


Next, consider the following sequence.
(Q) Please indicate polyreactivity (PSR sort gate) recorded for `QVQLVESGGGLVQAGGSLRLSCAAYGSTFFRYAMGWYRQAPGKERELVAAISASTGSTYYADSVKGRFTISRDNAKNTVYLQMNSLKPEDTAVYYCNAELGYGTNDNWYDYWGKGTQVTVSS`
(A) low polyreactivity

The values you see were collected from the nanobody polyreactivity screen of Harvey et al. (2022).
